Structures can show the parent of a compound that is named as a salt.
Outcome measure: melting point (°C)

# example entries with known answers
Cc1cc(-c2nc(Nc3ccc(F)c(C(F)(F)F)c3)nn2CCCC(=O)N(C)C)ccn1 : 146.9
COc1ccc(-c2nc(Nc3cccc(C(F)(F)F)c3)nn2CCO)cn1 : 160
CC(C)c1ccc(-c2nc(Nc3ccc(F)cc3)nn2CCO)cn1 : 135.1

I. C[C@@H](O)Cn1nc(Nc2ccc(F)c(C(F)(F)F)c2)nc1-c1ccc(C2CC2)nc1 (as salt: HCl) (hydrate or solvate)
II. FCCn1nc(Nc2ccc(F)c(C(F)(F)F)c2)nc1-c1ccc(C2CC2)nc1
Quick check, higher melting point between I and II ? // respond with label for picked entry
I

P. CC(C)NC(=O)CCn1nc(Nc2ccc(F)c(C(F)(F)F)c2)nc1-c1ccncc1
Q. CC(=O)c1ccc(-c2nc(Nc3ccc(F)c(F)c3)nn2C[C@H](C)O)cn1
Among P and Q , whose measured melting point is the smaller figure? Please respond with the label that marks your chosen entry.
Q
(Q: 147.8 °C, P: 217.7 °C)

a. CNC(=O)Cn1nc(Nc2cccc(OC(F)(F)F)c2)nc1-c1ccncc1NC
b. Cc1cc(-c2nc(Nc3cccc(OC(F)(F)F)c3)nn2CC(C)O)ccn1 (stereo not shown)
Which value of melting point is smaller, the one for a or the one for b ? // caller expects the label of the chosen entry
b

* * *

biological target: hα7-wt nAChR (Homo sapiens, UniProt P36544); construct: expressed in transfected cells; experiment: Ca2+ flux imaging (FDSS) (Protocol B), PAM activity with choline as agonist; type: cell-based; settings: "<5" = no top plateau at maximal concentration
Sequence (P36544 23-502): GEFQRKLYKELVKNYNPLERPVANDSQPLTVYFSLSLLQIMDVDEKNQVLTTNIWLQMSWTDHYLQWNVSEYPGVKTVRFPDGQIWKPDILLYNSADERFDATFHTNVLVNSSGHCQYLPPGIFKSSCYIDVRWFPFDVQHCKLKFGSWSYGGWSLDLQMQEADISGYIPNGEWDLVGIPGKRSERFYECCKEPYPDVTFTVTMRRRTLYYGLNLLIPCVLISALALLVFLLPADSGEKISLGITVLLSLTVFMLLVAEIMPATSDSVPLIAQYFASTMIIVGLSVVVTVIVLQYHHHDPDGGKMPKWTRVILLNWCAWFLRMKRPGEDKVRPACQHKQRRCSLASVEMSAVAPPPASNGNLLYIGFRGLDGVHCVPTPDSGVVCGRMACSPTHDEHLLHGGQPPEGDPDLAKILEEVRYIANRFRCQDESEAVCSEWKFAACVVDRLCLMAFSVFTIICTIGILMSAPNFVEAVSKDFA
Outcome measure: EC50 (nM)

CN(C)C(=O)CCn1nc(Nc2ccc3c(c2)OC(F)(F)O3)nc1-c1ccncc1 : 631
OCCn1nc(Nc2ccc(F)c(C(F)(F)F)c2)nc1-c1ccncc1F : 5010
CCOC(=O)NCCn1nc(Nc2ccc(F)c(C(F)(F)F)c2)nc1-c1ccnc(C)c1 : 1000
CN(C)CCNC(=O)Cn1nc(Nc2cccc(OC(F)(F)F)c2)nc1-c1ccc2c(c1)OCCO2 : 1580

P. Cc1cc(-c2nc(Nc3ccc(F)c(C(F)(F)F)c3)nn2CCCC(=O)N(C)C)ccn1
Q. COCCNc1ccc(-c2nc(Nc3ccc(F)c(C(F)(F)F)c3)nn2CCO)cn1
Of the two listed items, P and Q , which carries the larger EC50 figure? Identify your selection by its label.
Q

* * *

Outcome measure: melting point (°C)

CNC(=O)Cn1nc(Nc2ccc(F)c(C(F)(F)F)c2)nc1-c1ccncc1Cl [Compound 117] : 199.2
Cc1cc(-c2nc(Nc3cc(F)c(F)c(F)c3)nn2C[C@H](C)O)cc(Cl)n1 [Compound 172] : 200
Cc1cc(-c2nc(Nc3ccc4c(c3)OC(F)(F)O4)nn2CC(=O)NC2CCCC2O)ccn1 (centres unmarked) [Compound 207] : 219.7
CN(C)C(=O)CCn1nc(Nc2ccc3c(c2)OC(F)(F)O3)nc1-c1ccncc1 [Compound 33] : 216.4
Cc1cc(-c2nc(Nc3ccc4c(c3)OC(F)(F)O4)nn2CC(=O)NCC2CC2)ccn1 [Compound 26] : 227.2

* * *

biological target: hα7-wt nAChR (Homo sapiens, UniProt P36544); construct: expressed in transfected cells; assay: Ca2+ flux imaging (FLIPR) (Protocol A), PAM activity with choline as agonist; type: cell-based; conditions: read-out: % efficacy
Outcome measure: Emax (%)

P. OCCn1nc(Nc2cccc(C(F)(F)F)c2)nc1-c1cccnc1
Q. C[C@H](O)Cn1nc(Nc2ccc(F)c(F)c2)nc1-c1ccnc(C2CC2)c1
For P and Q , which recorded Emax is lower? API: response body contains the label of the selected item.
P

1. COCCn1nc(Nc2cccc(C(F)(F)F)c2)nc1-c1ccncc1
2. CNC(=O)CCn1nc(Nc2cccc(C(F)(F)F)c2)nc1-c1ccncc1
Which of these two has the smaller recorded Emax: 1 or 2 ? Output the label that corresponds to your choice.
1
(1: 641%, 2: 938%)

* * *

target: hα7-wt nAChR (Homo sapiens); construct: expressed in transfected cells; experiment: Ca2+ flux imaging (FDSS) (Protocol B), PAM activity with choline as agonist; format: cell-based; conditions: read-out: % efficacy
Outcome measure: Emax (%)

CCNc1cnccc1-c1nc(Nc2cccc(OC(F)(F)F)c2)nn1CC(C)O (stereo not shown) : 704
CN(C)C(=O)CCn1nc(Nc2ccc(F)c(C(F)(F)F)c2)nc1-c1ccnc(CNC(=O)C(F)(F)F)c1 : 669

I. Cc1cc(-c2nc(Nc3ccc4c(c3)OC(F)(F)O4)nn2CC(=O)NC2CCCC2O)ccn1 (stereo not shown)
II. CN(C)CCNC(=O)Cn1nc(Nc2cccc(OC(F)(F)F)c2)nc1-c1ccc2c(c1)OCCO2
Task for the reader: decide whether I or II has the larger Emax. Reply with the label of the item you choose.
I
(I: 811%, II: 550%)

* * *

biological target: hα7-wt nAChR (Homo sapiens, UniProt P36544); construct: expressed in transfected cells; assay: Ca2+ flux imaging (FLIPR) (Protocol A), PAM activity with choline as agonist; format: cell-based; conditions: "<5" = no top plateau at maximal concentration
Outcome measure: EC50 (µM)

OCCn1nc(Nc2cccc(C(F)(F)F)c2)nc1-c1ccnc(Cl)c1 : 6.31

P. FCCn1nc(Nc2cccc(OC(F)(F)F)c2)nc1-c1ccnc(C2CC2)c1
Q. C[C@H](O)Cn1nc(Nc2ccc(F)c(F)c2)nc1-c1ccnc(C2CC2)c1
Kindly compare P with Q and tell me which has the lower EC50 figure. Give the label of your selection.
Q

* * *

Outcome measure: melting point (°C)

CCc1cc(-c2nc(Nc3ccc(F)c(C(F)(F)F)c3)nn2CCO)ccn1 : 183
CNC(=O)Cn1nc(Nc2ccc(F)c(C(F)(F)F)c2)nc1-c1ccc(NCCOC)nc1 : 207.1
OCCn1nc(Nc2cccc(C(F)(F)F)c2)nc1-c1cnc2c(c1)OCC2 : 173.1
Cc1cc(-c2nc(Nc3ccc(F)c(C)c3)nn2CCC(=O)N(C)C)ccn1 : 158.8
COCCNc1ccc(-c2nc(Nc3ccc(F)c(C(F)(F)F)c3)nn2CCC(=O)N(C)C)cn1 : 167.7

* * *

Outcome measure: melting point (°C)

CC(C)(O)c1cc(-c2nc(Nc3ccc(F)c(C(F)(F)F)c3)nn2CC(=O)NC2CC2)ccn1 : 174
CNC(=O)Cn1nc(Nc2ccc3c(c2)OC(F)(F)O3)nc1-c1cc(Cl)ncc1Cl : 231.3
OCCn1nc(Nc2cccc(C(F)(F)F)c2)nc1-c1ccc(N2CCOCC2)nc1 : 145.6
CCOc1ccc(-c2nc(Nc3ccc(F)c(C(F)(F)F)c3)nn2CC(=O)NC)cn1 : 236.2
CCNc1ccc(-c2nc(Nc3ccc(F)c(C(F)(F)F)c3)nn2CCC(=O)N(C)C)cn1 : 201.1

P. CC(=O)NCCCn1nc(Nc2ccc(F)c(C(F)(F)F)c2)nc1-c1ccnc(C)c1
Q. CNC(=O)Cn1nc(Nc2ccc(F)c(C(F)(F)F)c2)nc1-c1ccc(OC)nc1
Identify the entry with the smaller melting point: P or Q . Please identify the chosen entry by its label.
P
(P: 171.2 °C, Q: 255.1 °C)

* * *

Outcome measure: melting point (°C)

Example compounds with recorded melting point:
CNc1ccc(-c2nc(Nc3cc(F)c(F)cc3F)nn2CCC(=O)N(C)C)cn1 [Compound 189] : 166.7
CCNC(=O)Cn1nc(Nc2cc(F)c(F)c(NCC)c2)nc1-c1ccnc(NCC)c1 [Compound 181] : 192.8
CN1CCOc2cc(-c3nc(Nc4cccc(OC(F)(F)F)c4)nn3CC(=O)NC3CC3)ccc21 [Compound 165] : 168
CN(C)c1cc(-c2nc(Nc3cccc(C(F)(F)F)c3)nn2CCO)ccn1 [Compound 75] : 164.2
CNC(=O)Cn1nc(Nc2ccc(F)c(C(F)(F)F)c2)nc1-c1ccnc(C)c1 [Compound 107] : 265

P. CC(C)(C)OC(=O)CCn1nc(Nc2ccc(F)c(C(F)(F)F)c2)nc1-c1ccnc(C#N)c1 [Compound 29]
Q. CNC(=O)Cn1nc(Nc2ccc(F)c(C(F)(F)F)c2)nc1-c1cnc2c(c1)OCC2 [Compound 28]
Which has the smaller recorded melting point, P or Q ? Pick one and reply with its label.
P

* * *

Molecular target: hα7-wt nAChR (Homo sapiens, UniProt P36544)
Construct: expressed in transfected cells
Assay: Ca2+ flux imaging (FDSS) (Protocol B), PAM activity with choline as agonist
Type: cell-based
Details: "<5" = no top plateau at maximal concentration
Procedure: […] PAM activity was detected in real time by applying the compounds to be tested to the loaded cells along with a α7 nicotinic receptor agonist during constant monitoring of cellular fluorescence in a FDSS. […] A control response to choline was calculated on each plate from the difference in peak in fluorescence in wells receiving either choline or assay buffer alone. […]
pEC50: −log10 of the molar value.
Outcome measure: pEC50

a. Cc1nc(CCn2nc(Nc3ccc(F)c(C(F)(F)F)c3)nc2-c2ccncc2)no1
b. CC(=O)c1ccc(-c2nc(Nc3ccc(F)c(F)c3)nn2C[C@H](C)O)cn1
// task: argmin of pEC50 over [ a , b ] Write the label of whichever entry you select.
b
(b: 5.20, a: 5.60)
